Experimental Target: Nucleoprotein (Lymphocytic choriomeningitis virus (strain Armstrong)) (UniProt P09992)
Sequence (P09992 whole entry, looked up): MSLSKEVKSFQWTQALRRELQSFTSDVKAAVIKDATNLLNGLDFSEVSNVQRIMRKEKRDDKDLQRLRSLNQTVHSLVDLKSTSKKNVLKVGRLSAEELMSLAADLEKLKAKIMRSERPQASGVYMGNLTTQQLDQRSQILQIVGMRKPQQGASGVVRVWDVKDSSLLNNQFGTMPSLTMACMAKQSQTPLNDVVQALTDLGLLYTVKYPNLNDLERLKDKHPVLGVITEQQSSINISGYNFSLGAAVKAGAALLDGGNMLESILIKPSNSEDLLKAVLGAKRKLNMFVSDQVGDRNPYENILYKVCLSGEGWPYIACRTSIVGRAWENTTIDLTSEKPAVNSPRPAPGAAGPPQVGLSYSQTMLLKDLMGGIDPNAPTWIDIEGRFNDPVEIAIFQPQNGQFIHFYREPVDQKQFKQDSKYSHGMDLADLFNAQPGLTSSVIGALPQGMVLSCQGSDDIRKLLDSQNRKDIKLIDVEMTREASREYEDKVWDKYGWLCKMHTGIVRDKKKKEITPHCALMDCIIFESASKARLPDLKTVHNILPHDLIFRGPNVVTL
Protocol Details: qHTS for Inhibitors of the Functional Ribonucleoprotein Complex (vRNP) of Lymphocytic Choriomeningitis Arenaviruses (LCMV): LCMV Primary Screen - GLuc reporter signal (AID 1347086); further: nearly all actives have a fitted effect of over 70% in size
Condition Context: LCMV minigenome vRNP cell assay, Gaussia luciferase reporter; series mostly up to 57.5 µM
Records with an inconclusive call do not appear. Active and inactive are the calls of the source. The call rests on the fitted dose curve.
Pick from true = active, false = inactive when you respond.

Some solved entries appear below for comparison.
Field: outcome | Entry: C=CC[C@]1(O)CC[C@H]2[C@@H]3CCC4=CC(=O)CCC4=C3C=C[C@@]21C
false

Any idea what this test logged for COc1cc(CC(C)N)c(OC)cc1Br (centres undefined) ?
false

Query: recorded result category for CN1C(=O)CN=C(c2ccccc2)c2cc(Cl)ccc21 in this test
false

I'd appreciate the recorded outcome for O=C1NCN(c2ccccc2)C12CCN(CCCC(c1ccc(F)cc1)c1ccc(F)cc1)CC2 from this test.
false

What did this assay record as the result for CN1CCN(CCCN2c3ccccc3Sc3ccc(S(=O)(=O)N(C)C)cc32)CC1 ?
false

Hi, sorry to bother you, what did the test record for Cc1cc2nc3ccc(=[N+](C)C)cc-3sc2cc1N ?
true

# lookup: test call for CCOCCOC(=O)/C=C/c1ccc(OC)cc1
false

I would be grateful if you could indicate the recorded call for CNC1CCCN(c2c(F)cc3c(=O)c(C(=O)O)cn(C4CC4)c3c2OC)C1 (centres undefined) .
false

Entry CC(=O)Oc1ccc(C(=C2CCCCC2)c2ccc(OC(C)=O)cc2)cc1 : call = ?
false

What did this assay record as the result for CCn1cc(C(=O)O)c(=O)c2cc(F)c(N3CCN(C)CC3)cc21 ?
false

Query compound follows.
Tell me the recorded outcome of this test for NC(=O)Cc1cccc(C(=O)c2ccccc2)c1N .
false

###

Protocol Details: qHTS of pediatric cancer cell lines to identify multiple opportunities for drug repurposing: Primary screen for TC32 cells (AID 1347089); further: nearly all actives have a fitted effect of over 60% in size
Condition Context: TC32 Ewing sarcoma viability, CellTiter-Glo luminescence, 48 h; series mostly up to 45.8 µM
Records with an inconclusive call do not appear. Calls of active or inactive are those of the source. Calls come from the whole dose curve; as a rule, active = well fitted cell-killing curve with a large enough effect; inconclusive = small, poorly fitted or top-dose-only effect; inactive = flat fitted curve, though single readings scatter.
Your reply should match one of these outcome classes. Y for active, N for inactive

Consider the following illustrative entries.
Each compound tested received a call. Report the one for COc1ccc(C(=O)N2CCCC2=O)cc1 .
N

# fetch the recorded call for Cc1ccc([N+](=O)[O-])[c]2c1[O][Hg]2 here
Y

How was CCC1(CC)C(=O)NC(=O)NC1=O classified in this test?
N

Tell me the assay call for CN1[C@@H]2CC[C@H]1CC(OC(=O)c1cc(Cl)cc(Cl)c1)C2 (some centres not stated) please.
N

Please share the test call associated with COP(=S)(OC)Oc1ccc(S(N)(=O)=O)cc1 .
N

# fetch the recorded call for N#Cc1nn(-c2c(Cl)cc(C(F)(F)F)cc2Cl)c(N)c1S(=O)C(F)(F)F (configuration not stated) here
N

I'd appreciate the recorded outcome for CCCOC(=O)Cc1ccc(OCC(=O)N(CC)CC)c(OC)c1 from this test.
N

Recorded test outcome, item COc1cc(C[C@@H](C)N)c(OC)cc1C
N

***
Given C[C@]12CC[C@H]3[C@@H](CCC4=CC(=O)CC[C@@]43C)[C@@H]1CC[C@@H]2C(=O)O , state the outcome it received in this test.
N

Recorded test outcome, item O=C1CN2CCOC2(c2ccccc2Cl)c2cc(Cl)ccc2N1 (configuration not stated)
N

Tell me the assay call for Clc1ccc(C(OCCN2CCCCC2)c2ccccc2)cc1 (configuration not stated) please.
N

Short answer needed: outcome of this test for CC(C)NCC(O)c1ccc(N)c(C#N)c1 (configuration not stated) ?
N

Hi, sorry to bother you, what did the test record for CC(Cc1ccccc1)NCCCCl (configuration not stated) ?
N

###

Test system: CP215
Protocol Details: qHTS profiling for inhibitors of Plasmodium falciparum proliferation (AID 504749); further: nearly all actives have a fitted effect of over 60% in size
Condition Context: P. falciparum in erythrocytes, SYBR Green DNA, 72 h; series mostly up to 28.7 µM
Records with an inconclusive call do not appear. Active and inactive are the calls of the source. The call rests on the fitted dose curve; in most records, active means well fitted inhibition curve with a large enough effect; inconclusive means small, poorly fitted or top-dose-only effect; inactive means flat fitted curve, though single readings scatter.
Your response should consist of one outcome taken from true (active), false (inactive)

These recorded examples may help you get a feel for the data.
Query: recorded result category for ClC1=C(Cl)C2(Cl)C(CBr)CC1(Cl)C2(Cl)Cl (stereo not drawn) in this test
false

State the result this test recorded for COP(=O)(OC)C(O)C(Cl)(Cl)Cl (stereo not drawn) .
false

Which outcome was assigned to O=C(O)c1nn(Cc2ccc(Cl)cc2Cl)c2ccccc12 in this test?
false

// return assay outcome for CC(C)C(Br)C(=O)NC(N)=O (stereo not drawn)
false

Kindly provide the recorded test outcome for the following compound: CCS(=O)(=O)C(C)(C)S(=O)(=O)CC
false

***
Give the logged outcome of this assay for the following compound: c1cc2c(c(N3CCNCC3)c1)OCCO2
false

Please indicate how the test categorized CCC1(c2ccccc2)CCC(=O)NC1=O (stereo not drawn) .
false

Please let me know the test result on file for C[N+]1(CCC(C(N)=O)(c2ccccc2)c2ccccc2)CCCCC1 .
false

In this assay, the call recorded for CNC(=O)NC(O)C(Cl)(Cl)Cl (stereo not drawn) was what?
false

Test call for this compound, please: CC(C)[N+](C)(CCC(C(N)=O)(c1ccccc1)c1ccccc1)C(C)C
false

Recorded test call requested for Cc1c(Cl)c(=O)oc2cc(OP(=O)(OCCCl)OCCCl)ccc12
true

State the result this test recorded for C[C@]12Cc3nonc3C[C@@H]1CC[C@@H]1[C@@H]2CC[C@@]2(C)[C@H]1CC[C@]2(C)O .
false

Record lookup: outcome of this test for C=CCOC(Cn1ccnc1)c1ccc(Cl)cc1Cl (stereo not drawn) ?
true

###

Test system: astro
Protocol Details: Drug repurposing screens with cells derived from glioblastoma tumor samples (AID 1345199); further: nearly all actives have a fitted effect of over 40% in size
Condition Context: viability, ATP luminescence, 48 h; series mostly up to 45.9 µM
Records with an inconclusive call do not appear. Active and inactive are the calls of the source. Calls follow the shape of the dose curve; as a rule, active = well fitted inhibition curve with a large enough effect; inconclusive = small, poorly fitted or top-dose-only effect; inactive = flat fitted curve, though single readings scatter.
Give one outcome, nothing more. List: 1 = active, -1 = inactive

I'd appreciate the recorded outcome for c1ccc2nc(N3CCNCC3)ccc2c1 from this test.
1

Name the outcome recorded for CCC1(c2cccc(O)c2)CCCCN(C)C1 (centres undefined) in the assay.
-1

I would be grateful if you could indicate the recorded call for CCC1(CC)C(=O)NC(=O)NC1=O .
-1

Recorded test outcome, item COc1cc(C[C@@H](C)N)c(OC)cc1C
-1

Per the assay record, what outcome was assigned to O=C(O)Cc1ccccc1 ?
-1

More entries:
Assay result, entry CNC(C)Cc1ccc2c(c1)OCO2 (centres undefined) — outcome?
-1

Test call, this compound: CCCCCCCCC(=O)NCc1ccc(O)c(OC)c1
-1

###

Condition Context: Ebola virus entry assay, reporter ratio channel; Channel type: primary
Activity calls are given as the source filed them.
// allowed return values: active, inactive

How was CCN(CC)CC(=O)OCC(=O)[C@@]1(O)CC[C@H]2[C@@H]3CCC4=CC(=O)CC[C@]4(C)[C@H]3[C@@H](O)C[C@@]21C classified in this test?
inactive

###

Protocol Details: Drug repurposing screens with cells derived from glioblastoma tumor samples (AID 1345199); further: nearly all actives have a fitted effect of over 40% in size; on activity, negative = cell killing: on the % scale 0 is the no-effect control and ±100 the full control effect
Condition Context: GBM patient neurospheres viability, ATP luminescence, 48 h; at 108 µM (top of the series); tumour line D
Results filed as inconclusive are left out.
Assay Readout: activity, negative = cell killing (%)
One number for each entry, in %.

Worked cases, answers included:
What value of measured activity, negative = cell killing is listed for C[C@H](CN1CCOCC1)C(C(=O)N1CCCC1)(c1ccccc1)c1ccccc1 ?
-29.8

Given CNC(C)Cc1ccc2c(c1)OCO2 (configuration not stated) , state its recorded activity, negative = cell killing.
-9

Quick check: activity, negative = cell killing of COc1ccc(OC)c(CC(C)N)c1 (configuration not stated) ?
-16.6

I have this compound here, CN(C)CCc1c[nH]c2ccccc12 , and I need its recorded activity, negative = cell killing.
-2.02

Quick one: activity, negative = cell killing of CC(Cc1ccc2c(c1)OCO2)NO (configuration not stated) ?
-8.83

Which activity, negative = cell killing is listed for CCc1cc(OC)c(C[C@H](C)N)cc1OC ?
-14.6

// below: activity, negative = cell killing requested for another compound
Tell me the measured activity, negative = cell killing of COc1cc(C[C@@H](C)N)c(OC)cc1C , please.
-18.9

###

Field: efficacy. Provide a value for each of the molecules that follow.
Condition Context: Ebola virus entry assay, green fluorescence channel
Entries with a potency or affinity are not part of this list. Calls of active or inactive are those of the source.

I'd like to know its efficacy. The molecule in question is C[C@]12CC[C@H](O)CC1=CC[C@@H]1[C@@H]2CC[C@]2(C)C(=O)CC[C@@H]12
42.1% (inactive)

Entry NCC1CCC(C(=O)Oc2ccc(CCC(=O)O)cc2)CC1 (stereo unspecified) has what efficacy?
32.3% (inactive)

Data request, read-out efficacy, for CN1[C@@H]2CC[C@H]1CC(NC(=O)n1c(=O)[nH]c3ccccc31)C2 (stereo partly specified)
-15.6% (inactive)

Below are some molecules; for each one, tell me its efficacy.
1. C#CCN(C)CCCOc1ccc(Cl)cc1Cl
2. C[C@@H](O)[C@H]1C(=O)N2C(C(=O)O)=C([C@H]3CCCO3)S[C@H]12
3. Cc1cn([C@H]2C[C@H](F)[C@@H](CO)O2)c(=O)[nH]c1=O

1: -19.7% (inactive); 2: -19.1% (inactive); 3: -14.7% (inactive)
